Where do the numbers come from? From PubChem BioAssay (NCI).

Tested on: RPMI-8226 leukemia
Experiment: NCI tumour cell line growth inhibition, 48 h
Test readout: TGI (µM)
Express your answer in µM, writing the number without its unit.

Which measured TGI value corresponds to CCCCCCn1c(-c2ccc(C(=O)O/N=C(\N)c3ccc4c(c3)OCO4)cc2)nc(-c2ccccc2)c1-c1ccccc1 ? 5.25

Please answer likewise for C=C(CN(C)Cc1ccccc1)c1ccc(NC(=O)c2ccc(C(=C)CN(C)Cc3ccccc3)cc2)cc1 53.6

====

Each entry below carries its reported GI50.
Test system: SNB-19 CNS
Assay: NCI tumour cell line growth inhibition, 48 h
Where a SMILES comes first, the peptide text is derived from it. The star is where a group is joined. Palmitoyl = CCCCCCCCCCCCCCCC(=O)*

Some solved cases for reference:
[
  {
    "Compound": "CCCCCCCCCCCCCCCC(=O)N1CCCC1C(=O)NCC(=O)NC(Cc1ccccc1)C(=O)N1CCCC1C(=O)NC(CO)C(=O)NC(Cc1ccc(O)cc1)C(=O)NC(CCCCN)C(=O)NC(CC(C)C)C(=O)NC(CCCN=C(N)N)C(=O)N1CCCC1C(=O)NCC(N)=O (centres undefined) (Palmitoyl-PGFPSYKLRPG-NH2; configuration not given here)",
    "Observed measurement": "25.7 µM"
  },
  {
    "Compound": "COc1cc(/C=C2\\CCCCC3=C2N=C2SC(C)=CN2C3c2cc(OC)c(OC)c(OC)c2)cc(OC)c1OC (centres undefined)",
    "Observed measurement": "> 100 µM"
  },
  {
    "Compound": "N#CC(I)CS(=O)(=O)c1ccccc1 (centres undefined)",
    "Observed measurement": "> 100 µM"
  }
]

Record request: GI50 value, item CCSc1nc(N=Cc2ccccc2O)c2cn[nH]c2n1 56.1 µM

====

Tested on: 786-0 renal
Experiment: NCI tumour cell line growth inhibition, 48 h
# TGI listing for each entry below

[
  {
    "Molecule": "Cc1ccc2c(c1)c1ccc3c(c1n2C)C(=O)C=CC3=O",
    "Test readout": "TGI",
    "Observed measurement": "3.44 µM"
  },
  {
    "Molecule": "COc1cc2c3c(n(C)c(=O)c2cc1OC)-c1cc2c(cc1C3=O)OCO2",
    "Test readout": "TGI",
    "Observed measurement": "> 77.7 µM"
  },
  {
    "Molecule": "O=C1CSC2(CC(/C=C/c3cccs3)=NN2c2cccc(S(=O)(=O)O)c2)N1c1nc2ccccc2s1 (configuration not stated)",
    "Test readout": "TGI",
    "Observed measurement": "> 100 µM"
  },
  {
    "Molecule": "CCN(Cc1c(F)cccc1OC)c1ccc(CO)c(Cl)c1",
    "Test readout": "TGI",
    "Observed measurement": "38.9 µM"
  },
  {
    "Molecule": "N#Cc1sc2c(c1OC(=O)c1ccc(C(F)(F)F)cc1)c(=O)n(-c1ccccc1)c(=S)n2-c1ccccc1",
    "Test readout": "TGI",
    "Observed measurement": "> 100 µM"
  }
]

Field request: TGI | item: CCOc1ccc(OCC(=O)O)c2c1CCCC2=O > 100 µM

Similarly, COc1cccc2c1OC(c1cccc3ccccc13)C([N+](=O)[O-])=C2 (configuration not stated) ? 3.95 µM

====

Test system: K-562 leukemia
Test: NCI tumour cell line growth inhibition, 48 h
Where a SMILES comes first, the peptide text is derived from it. The star is where a group is joined. Palmitoyl = CCCCCCCCCCCCCCCC(=O)*
Test readout: TGI (µM)
Enter your answer as a number in µM; do not include the unit.

Examples from the recorded data:
[
  {
    "Compound": "O=C(CNc1ccc(Cl)cc1Cl)Nn1c(-c2ccccc2)nc2ccccc2c1=O",
    "Unit symbol": "µM",
    "Observed measurement": 36.5
  },
  {
    "Compound": "CCCCCCCCCCCCCCCC(=O)N1CCCC1C(=O)NCC(=O)NC(Cc1ccccc1)C(=O)N1CCCC1C(=O)NC(CO)C(=O)NC(Cc1ccc(O)cc1)C(=O)NC(CCCCN)C(=O)NC(CC(C)C)C(=O)NC(CCCN=C(N)N)C(=O)N1CCCC1C(=O)NCC(N)=O (stereo unspecified) (Palmitoyl-PGFPSYKLRPG-NH2; configuration not given here)",
    "Unit symbol": "µM",
    "Observed measurement": 38.5
  }
]

Lab note: need TGI with K-562 leukemia for entry CCOC(=O)/C=C1/C(CCCOCc2ccccc2)C2CCCC23CC2(CCN13)OCCO2 (stereo unspecified) , please look it up. 63.7

Queued: O=C1C/C(Br)=C\c2ccccc2-c2ccccc21 9.65

Repeat with O=C1C(=Nc2ccc(Nc3ccccc3)cc2)Oc2ccccc21 11.4

====

System: 786-0 renal
Experiment: NCI tumour cell line growth inhibition, 48 h
Some molecules, each annotated with its measured TGI.

Worked examples, 5 molecules total:
[
  {
    "Molecule": "Cn1c2ccccc2c2c(=S)c3ccccc3ccc21",
    "Study system": "786-0 renal",
    "Observed measurement": "> 100 µM"
  },
  {
    "Molecule": "COc1ccc(-c2nc3ccccc3c(=S)n2OC(C)=O)cc1",
    "Study system": "786-0 renal",
    "Observed measurement": "> 25 µM"
  },
  {
    "Molecule": "CCOC(=O)c1c(C)c2c(n1Cc1ccccc1)CSCC2=O",
    "Study system": "786-0 renal",
    "Observed measurement": "63.1 µM"
  },
  {
    "Molecule": "CCOC(=O)C(Br)=C1OC(=O)c2ccccc2-c2ccccc21 (mixture of isomers)",
    "Study system": "786-0 renal",
    "Observed measurement": "32.7 µM"
  },
  {
    "Molecule": "CNc1nncc2[nH]cnc12",
    "Study system": "786-0 renal",
    "Observed measurement": "> 100 µM"
  }
]

What TGI value was documented for this molecule, CC1OC(O[C@H]2C3C=CO[C@@H](OC4OC(CO)C(O)C(O)C4O)C3[C@@]3(COC(=O)/C=C/c4ccccc4)O[C@@H]23)C(O)C(O)C1O (stereo partly specified) ? > 100 µM

Also CC(C)Oc1cccc(N2C(=NCc3c[nH]c4ccccc34)Nc3ccncc3S2(=O)=O)c1 ? > 100 µM

Try this molecule too: CCOC(=O)c1c2cccccc-2nc1Nc1cccc2c(C)ccnc12 > 10 µM

And the next one, CCCN(CCC)c1c([N+](=O)[O-])cc(C(=O)N(CC)CC)cc1[N+](=O)[O-] ? > 100 µM

How about this molecule: c1ccc2c(c1)CCc1c(-c3ccncc3)n[nH]c1-2 > 100 µM

Item: CC[C@@H]1NC(C(=O)OC)Cc2c1[nH]c1ccccc21 (stereo partly specified) > 100 µM

Can you handle O/N=C1\CCCCC1C(NO)c1ccccc1 (stereo unspecified) next? > 100 µM

====

Tested on: EKVX NSCLC
Assay: NCI tumour cell line growth inhibition, 48 h
Test readout: TGI

Illustrative cases are given below, each with its answer.
[
  {
    "Compound": "O=C(c1ccc([N+](=O)[O-])cc1[N+](=O)[O-])N(/N=C/C=C/c1ccccc1)c1nnc(-c2ccccc2)c(-c2ccccc2)n1",
    "Study system": "EKVX NSCLC",
    "Observed measurement": "> 100 µM"
  },
  {
    "Compound": "CN(C)CCN1CCC(Cc2ccccc2)CC1",
    "Study system": "EKVX NSCLC",
    "Observed measurement": "> 80 µM"
  },
  {
    "Compound": "CC(C)C1CN(C(=O)OCc2ccccc2)C2N1C(=O)C2(C)OCc1ccccc1 (stereo unspecified)",
    "Study system": "EKVX NSCLC",
    "Observed measurement": "> 100 µM"
  },
  {
    "Compound": "O=C(CNc1ccc(Cl)cc1Cl)Nn1c(-c2ccccc2)nc2ccccc2c1=O",
    "Study system": "EKVX NSCLC",
    "Observed measurement": "35.5 µM"
  },
  {
    "Compound": "C=C(CN(C)Cc1ccccc1)c1ccc(NC(=O)c2ccc(C(=C)CN(C)Cc3ccccc3)cc2)cc1",
    "Study system": "EKVX NSCLC",
    "Observed measurement": "> 100 µM"
  }
]

Please find the next compound below.
# query: TGI of entry CNc1nc(N)nc(Nc2ccc(I)cc2)c1N=O > 100 µM

====

TGI for assorted compounds
System: MDA-N
Assay: NCI tumour cell line growth inhibition, 48 h

Check out these entries, answers already filled in.
[
  {
    "Smi": "NC(=S)N/N=C/c1ncccc1O",
    "Observed measurement": "> 853 µM"
  },
  {
    "Smi": "CCOC(=O)/C(C(C)=O)=C(\\OC(C)=O)c1ccncc1C(=O)O",
    "Observed measurement": "> 100 µM"
  }
]

Below: the item to evaluate.
State the recorded TGI for this entry: COc1ccc2c(=O)oc3c(OC)cc(CCN(C)C)c4c(=O)oc1c2c34 14.8 µM
